# Assay procedure: inhibitors of mutant huntingtin aggregation, primary screen, imaging, exon1htt(103Q)mCFP cells, high-content imaging (AID 483);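 note: compound exposure lasted 3 days before fixation; percent of the per-plate median nuclei count of sample wells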
# Condition set: exon1htt(103Q)mCFP cell line, aggregate imaging, at 2 µM; measured here: cell count, toxicity
Measured property: nuclei count (%)
Answer with a number only, understood to be in %.

Reference set (4 entries):
{"Molecule": "Nc1nonc1N1CCCCC1", "Observed measurement": 107}
{"Molecule": "CCN(CC)CCCN1C(=O)C(O)=C(C(C)=O)C1c1cccc(OC)c1 (configuration not stated)", "Observed measurement": 97.3}
{"Molecule": "COc1cccc(-n2c(SC3CCOC3=O)nc3ccccc3c2=O)c1 (configuration not stated)", "Observed measurement": 101}
{"Molecule": "CCOC(=O)C1CCN(C(=O)C2(NC(=O)Nc3ccccc3Cl)CCCCC2)CC1", "Observed measurement": 107}

I'd like to know its nuclei count. The molecule in question is Cc1nnc(SCC(=O)NCCN2C(=O)CSC2=O)s1
65.4

What do you have for CC(=O)Nc1cc(N2C(=O)CCC2=O)ccc1Cl ?
98.5

What do you have for COc1ccc(CN2C(=O)[C@@H]3C(c4ccc(F)cc4)=NO[C@@H]3C2=O)cc1 ?
87.7

What do you have for Cc1nc(NC(=O)c2ccccc2)sc1-c1csc(NCc2ccco2)n1 ?
121

What do you have for O=C(NCc1ccco1)c1ccccc1Nc1ccc(F)cc1 ?
67.1

What do you have for CCOc1ncccc1C(=O)Nc1ccc(Cl)cc1 ?
121

What do you have for Cc1nnc(N2C(=O)c3oc4ccccc4c(=O)c3C2c2ccco2)s1 (configuration not stated) ?
98.1

What do you have for C=CCOc1ccc(/C=N/n2cncn2)cc1OC ?
76.3

----------
Parameter: z-score. Scope: all listed entries.
# Assay procedure: DUSP6 inhibitors restoring Erk phosphorylation by chemical complementation, primary imaging in DUSP6-transfected HeLa (AID 609)
# Condition set: HeLa MKP-3 transfected, phospho-Erk imaging KS statistic; measured here: nuclear c-Myc green intensity z-score; at 10 µM; cells stimulated with TPA for 15 min

{"Compound": "Cc1ccccc1COc1ccc(/C(O)=C2/C(=O)C(=O)N(CCCn3ccnc3)C2c2ccco2)cc1 (configuration not stated)", "Observed measurement": -0.323}

I'd like to know its z-score. The compound in question is Cc1cc(C(=O)O)c(CSc2ncn[nH]2)o1
1.91

What do you have for COC(=O)c1sc2nc(N3CCCCC3)c3c(c2c1N)CC(C)(C)N(C)C3 ?
1.33

What do you have for COc1ccccc1C1/C(=C(/O)c2ccc(C)cc2)C(=O)C(=O)N1CCN1CCOCC1 (configuration not stated) ?
-0.67

What do you have for Cc1ccc(N2C(=O)c3sc4nnc(C)c(=O)n4c3C2=O)cc1 ?
1.58

What do you have for CCN(CC)CCN1C(=O)C(=O)/C(=C(/O)c2c(C)[nH]c(C(=O)OC)c2C)C1c1ccc(OC)cc1 (configuration not stated) ?
-0.0149

What do you have for COc1ccc(-n2ncc3c(NCCCn4ccnc4)ncnc32)cc1 ?
1.35

----------
# Assay procedure: DUSP6 inhibitors restoring Erk phosphorylation by chemical complementation, primary imaging in DUSP6-transfected HeLa (AID 609)
# Condition set: HeLa MKP-3 transfected, phospho-Erk imaging KS statistic; measured here: cell density z-score; at 10 µM; cells stimulated with TPA for 15 min
Measured property: z-score

Reference set (2 entries):
{"Compound": "CCCCCNC(=O)C(C#N)c1nc2ccccc2nc1N1CC(C)OC(C)C1 (stereo not drawn)", "z-score": 1.56}
{"Compound": "Cn1c(OCc2cccnc2)nc2c1c(=O)n(Cc1ccccc1)c(=O)n2C", "z-score": 1.38}

I'd like to know its z-score. The compound in question is O=C(c1coc(=O)c(Br)c1)N1CCOCC1
-0.0624
